Measured TGI, listed per entry for reference.
system: SK-MEL-2 melanoma; assay: NCI tumour cell line growth inhibition, 48 h
Provide the reading as a plain figure in µM.

Please review the following examples before continuing.
# compound, system_tested, TGI / µM
data = [
    ("O=S1(=O)c2ccccc2Oc2ccc(C(/C=N/O)=N/O)cc21", "SK-MEL-2 melanoma", 70.7),
    ("CN(C)CC(O)c1ccc(Cl)c2ccccc12 (stereo unspecified)", "SK-MEL-2 melanoma", 39.7),
    ("O=C(Nc1ccccc1)N(C1=NCC(CI)S1)c1ccc(F)c(F)c1 (stereo unspecified)", "SK-MEL-2 melanoma", 60.5),
    ("O=C(/C=C(/C=C/c1ccc2[nH]ccc2c1)OB(F)F)/C=C/c1ccc2[nH]ccc2c1", "SK-MEL-2 melanoma", 86.2),
]

Below: the item to evaluate.
Exercise: GET /values?readout=TGI&item= CC1=NNC(=O)C1C1C(=O)NN=C(c2c[nH]c3ccccc23)C1Br (stereo unspecified)
Solution: 84.8
